System: pERK in HCT-116 cells (KRAS G13D)
MEASUREMENT_DESCRIPTION: Phospho-ERK inhibition (AlphaLISA SureFire Ultra p-ERK 1/2), HCT116
Format: cell-based, human
CONDITION_DESCRIPTION: Homo sapiens, HCT-116; HCT116 cells, 1 h treatment

COMPOUND	IC50
Cc1csc(S(=O)(=O)Nc2ccc(F)c(Nc3ncnc4ccc(-n5cnc6ccccc65)nc34)c2F)c1Cl [Example 316]	500 to 1000 nM

* * *

TESTED_ON: BRAF (Homo sapiens (Human), UniProt P15056)
Sequence (P15056 whole entry): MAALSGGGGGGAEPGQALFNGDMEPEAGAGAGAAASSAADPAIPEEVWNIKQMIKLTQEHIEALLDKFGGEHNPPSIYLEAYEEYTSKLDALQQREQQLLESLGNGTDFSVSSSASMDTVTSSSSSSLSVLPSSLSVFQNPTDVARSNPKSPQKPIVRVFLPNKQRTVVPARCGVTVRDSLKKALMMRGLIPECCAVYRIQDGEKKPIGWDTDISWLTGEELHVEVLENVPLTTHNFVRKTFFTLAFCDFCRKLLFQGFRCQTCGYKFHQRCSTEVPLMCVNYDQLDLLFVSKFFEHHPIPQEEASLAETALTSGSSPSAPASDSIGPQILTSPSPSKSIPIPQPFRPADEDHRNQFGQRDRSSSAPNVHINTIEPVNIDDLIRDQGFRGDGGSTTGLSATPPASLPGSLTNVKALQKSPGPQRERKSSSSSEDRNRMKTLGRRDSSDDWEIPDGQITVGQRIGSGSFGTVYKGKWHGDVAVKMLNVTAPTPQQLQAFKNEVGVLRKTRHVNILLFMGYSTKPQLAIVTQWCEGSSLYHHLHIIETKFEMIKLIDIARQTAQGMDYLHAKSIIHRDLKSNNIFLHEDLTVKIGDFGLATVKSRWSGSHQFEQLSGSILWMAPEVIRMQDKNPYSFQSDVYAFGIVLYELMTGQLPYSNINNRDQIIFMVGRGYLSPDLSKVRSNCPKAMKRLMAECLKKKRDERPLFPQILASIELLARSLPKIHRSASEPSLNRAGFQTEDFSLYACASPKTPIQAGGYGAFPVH
MEASUREMENT_DESCRIPTION: BRAF kinase activity assay (ADP-Glo)
Type: biochemical
CONDITION_DESCRIPTION: read-out: Kinase IC50 (nM) BRAF
OBSERVED_PROPERTY: IC50

1. CNCc1cccc2c1ncn2-c1ccc2ncnc(Nc3c(F)ccc(NS(=O)(=O)c4ccccc4Cl)c3F)c2n1 1 to 10 nM
2. O=S(=O)(Nc1ccc(F)c(Nc2ncnc3ccc(-n4cnc5c(CN6CC(O)C6)cccc54)nc23)c1F)c1ccccc1Cl 1 to 10 nM
3. COC1CN(Cc2cccc3c2ncn3-c2ccc3ncnc(Nc4c(F)ccc(NS(=O)(=O)c5ccccc5Cl)c4F)c3n2)C1 1 to 10 nM

* * *

System: pERK in HCT-116 cells (KRAS G13D)
MEASUREMENT_DESCRIPTION: Phospho-ERK inhibition (AlphaLISA SureFire Ultra p-ERK 1/2), HCT116
Type: cell-based, human
CONDITION_DESCRIPTION: HCT116 cells; class symbol
pIC50: −log10 of the molar value.
OBSERVED_PROPERTY: pIC50

1. O=S(=O)(Nc1ccc(F)c(Nc2ncnc3ccc(-n4cc(-c5ccccc5)nn4)nc23)c1F)c1cccc(Cl)c1Cl > 6.30
2. O=C1CCCCN1c1cn(-c2ccc3ncnc(Nc4c(F)ccc(NS(=O)(=O)c5cccc(Cl)c5Cl)c4F)c3n2)c2ccccc12 5.00 to 6.00
3. C[C@@H]1CN(C)C[C@H](C)N1S(=O)(=O)c1cn(-c2ccc3ncnc(Nc4c(F)ccc(NS(=O)(=O)c5cccc(Cl)c5Cl)c4F)c3n2)c2ccccc12 > 6.30
4. COCCOc1nccc2c1ncn2-c1ccc2ncnc(Nc3c(F)ccc(NS(=O)(=O)c4cccc(Cl)c4Cl)c3F)c2n1 6.00 to 6.30
5. CN(C)CCCS(=O)(=O)c1cn(-c2ccc3ncnc(Nc4c(F)ccc(NS(=O)(=O)c5cccc(Cl)c5Cl)c4F)c3n2)c2ccccc12 > 6.30
6. O=S(=O)(Nc1ccc(F)c(Nc2ncnc3ccc(-n4cc(S(=O)(=O)N5CC(O)C5)c5ccccc54)nc23)c1F)c1cccc(Cl)c1Cl > 6.30
7. Cc1c(F)cccc1S(=O)(=O)Nc1ccc(F)c(Nc2ncnc3ccc(-n4cnc5c(C#N)cccc54)nc23)c1F 5.00 to 6.00
8. Cc1c(F)cccc1S(=O)(=O)Nc1ccc(F)c(Nc2ncnc3ccc(-n4ncc5c4CN(CCO)CC5)nc23)c1F > 6.30
9. CN(C)CCN(C)S(=O)(=O)c1cn(-c2ccc3ncnc(Nc4c(F)ccc(NS(=O)(=O)c5cccc(Cl)c5Cl)c4F)c3n2)c2ccc(F)cc12 > 6.30
10. CN1CCC(S(=O)(=O)c2cn(-c3ccc4ncnc(Nc5c(F)ccc(NS(=O)(=O)c6cccc(Cl)c6Cl)c5F)c4n3)c3ccccc23)CC1 > 6.30
11. CCC(=O)c1cn(-c2ccc3ncnc(Nc4c(F)ccc(NS(=O)(=O)c5cccc(Cl)c5Cl)c4F)c3n2)c2ccccc12 5.00 to 6.00
12. Cc1c(F)cccc1S(=O)(=O)Nc1ccc(F)c(Nc2ncnc3ccc(-n4ccc(C(=O)N(C)Cc5ccncc5)n4)nc23)c1F > 6.30
13. O=S(=O)(Nc1ccc(F)c(Nc2ncnc3ccc(-n4cc(S(=O)(=O)C5CCN(C6CCC6)CC5)c5ccccc54)nc23)c1F)c1cccc(Cl)c1Cl > 6.30
14. CP(C)(=O)c1cn(-c2ccc3ncnc(Nc4c(F)ccc(NS(=O)(=O)c5cccc(Cl)c5Cl)c4F)c3n2)c2ccccc12 5.00 to 6.00
15. Cc1c(F)cccc1S(=O)(=O)Nc1ccc(F)c(Nc2ncnc3ccc(-n4cc5c(n4)CCCN5C(=O)CN)nc23)c1F 5.00 to 6.00
16. Cc1c(F)cccc1S(=O)(=O)Nc1ccc(F)c(Nc2ncnc3ccc(-n4cnc5c(-c6cnccc6N)cccc54)nc23)c1F 5.00 to 6.00
17. Cc1c(F)cccc1S(=O)(=O)Nc1ccc(F)c(Nc2ncnc3ccc(-n4ncc5c4CN(CCN)CC5)nc23)c1F 6.00 to 6.30
